Test system: Ba/F3 cells HER2 WT
Assay: Ba/F3 proliferation assay HER2 WT
Type: cell-based
Conditions: Mus musculus, BaF3; 72 h, CellTiter-Glo
GI50 overview

{"structureAsSmiles": "C=CC(=O)N1CCN(c2ncc3ncnc(Nc4ccc(Oc5ccc6c(c5)ncn6C)c(Cl)c4)c3n2)CC1", "GI50": "2 nM"}
{"structureAsSmiles": "C=CC(=O)N1CCN(c2ncc3ncnc(Nc4cc(F)c(Oc5ccc6c(c5)ncn6C)c(Cl)c4)c3n2)CC1", "GI50": "3 nM"}
{"structureAsSmiles": "C=CC(=O)N1CCN(c2ncc3ncnc(Nc4ccc(Oc5ccc6c(c5)ncn6C)c(Br)c4)c3n2)CC1", "GI50": "1 nM"}
{"structureAsSmiles": "C=CC(=O)N1CCN(c2ncc3ncnc(Nc4ccc(Oc5ccc6c(c5)ncn6C)cc4F)c3n2)CC1", "GI50": "7 nM"}
{"structureAsSmiles": "C=CC(=O)N1CCN(c2ncc3ncnc(Nc4ccc(Oc5ccc6c(c5)ncn6C)c(C)c4)c3n2)CC1", "GI50": "1 nM"}

Values from patent US20230126204A1
